- System: B lymphocyte cells
- test-protocol: LPS-induced B-cell proliferation ([3H]-thymidine uptake)
- Type: cell-based, BALB/c mice
- condition-context: Mus musculus, spleen cells stimulated with 10 µg/mL LPS
// pIC50 lookup, one value per entry
Scale: negative log10 of molar concentration, which is what pIC50 denotes.

[
  {
    "compound": "CC(=CC(O)CC12COC3(C)CCC1CC32)C(=O)O (stereo not drawn) [Compound 20, massarinolin B]",
    "pIC50": 6.17
  },
  {
    "compound": "CC(=CC(O)CC12COC3(CO)CCC1CC32)C(=O)O (stereo not drawn) [Compound 10, Craterodoratin J]",
    "pIC50": 4.71
  },
  {
    "compound": "CC(=CCCC1(C)C2CCC(CO)C1C2)C(=O)O (stereo not drawn) [Compound 13, Craterodoratin M]",
    "pIC50": 4.81
  },
  {
    "compound": "CC(=CC(=O)CC12C(=O)OC3(C)CCC1CC32)C(=O)O (stereo not drawn) [Compound 12, Craterodoratin L]",
    "pIC50": 4.86
  },
  {
    "compound": "C=C1C2CN(CC(=O)O)CC3C2C(C(C)C)CCC13C (stereo not drawn) [Compound 19, Craterodoratin S]",
    "pIC50": 4.64
  },
  {
    "compound": "CC(=CC1CC23C4CCC(C)(OC2O1)C3C4)C(=O)O (stereo not drawn) [Compound 23, donacinoic acid A]",
    "pIC50": 4.88
  },
  {
    "compound": "C=C1CCC2(O)CC1C2(C)CCC=C(C)C(=O)O (stereo not drawn) [Compound 15, Craterodoratin O]",
    "pIC50": 4.77
  },
  {
    "compound": "CC(=CCCC1(C)C2CCC(CO)(C2)C1O)C(=O)O (stereo not drawn) [Compound 3, Craterodoratin C]",
    "pIC50": 4.90
  }
]

Here's the next entry for you.
Task: Specify measured pIC50 for CC(=CCCC1(C)C2CCC(CO)C1(O)C2)C(=O)O (stereo not drawn) [Compound 14, Craterodoratin N] .
Result: 4.88

These entries and their values trace back to paper PMC8707212.
